Tested on: A549
Assay: Cytotoxicity against human A549 cells assessed as NADH level after 72 hrs by MTS cells
Type: functional, cell-based
Details: A549, 72 h
pEC50: −log10 of the molar value.
pEC50 values, listed per item

>  <Record smiles>
CCN1CCC[C@@H](n2c(-c3cccc(/C=C/C(=O)NO)c3)nc(C)c2C)C1

>  <Comparison sign>
=

>  <pEC50>
6.52

$$$$
>  <Record smiles>
Cn1c(-c2cccc(/C=C/C(=O)NO)c2)nc2ccccc21

>  <Comparison sign>
=

>  <pEC50>
4.92

$$$$
>  <Record smiles>
CCN(CC)CCn1c(-c2cccc(/C=C/C(=O)NO)c2)nc2ccccc21

>  <Comparison sign>
=

>  <pEC50>
5.40

$$$$
>  <Record smiles>
O=C(/C=C/c1cccc(-c2nc3ccccc3n2CCN2CCCCC2)c1)NO

>  <Comparison sign>
=

>  <pEC50>
5.92

$$$$
>  <Record smiles>
O=C(/C=C/c1cccc(-c2nc3ccccc3n2-c2ccc(Cl)cc2)c1)NO

>  <Comparison sign>
=

>  <pEC50>
5.20

$$$$
>  <Record smiles>
O=C(/C=C/c1cccc(-c2nc3ccccc3n2[C@H]2CCCNC2)c1)NO

>  <Comparison sign>
=

>  <pEC50>
5.60

$$$$
>  <Record smiles>
CCN1CCC[C@@H](n2c(-c3cccc(/C=C/C(=O)NO)c3)nc(C)c2-c2ccccc2)C1

>  <Comparison sign>
=

>  <pEC50>
6.52

$$$$
>  <Record smiles>
O=C(/C=C/c1cccc(-c2nc3ccccc3[nH]2)c1)NO

>  <Comparison sign>
=

>  <pEC50>
4.60

$$$$
>  <Record smiles>
Cc1c(-c2ccccc2)nc(-c2cccc(/C=C/C(=O)NO)c2)n1CCc1ccccc1

>  <Comparison sign>
=

>  <pEC50>
6.10

$$$$
>  <Record smiles>
Cc1nc(-c2cccc(/C=C/C(=O)NO)c2)n(CCN2CCOCC2)c1-c1ccccc1

>  <Comparison sign>
=

>  <pEC50>
5.40

$$$$
>  <Record smiles>
O=C(/C=C/c1cccc(-c2nc3ccccc3n2CCN2CCCC2)c1)NO

>  <Comparison sign>
=

>  <pEC50>
5.51

$$$$
>  <Record smiles>
CN(C)CCn1c(-c2cccc(/C=C/C(=O)NO)c2)nc2ccccc21

>  <Comparison sign>
=

>  <pEC50>
5.10

$$$$
>  <Record smiles>
Cc1c(Cc2ccccc2)nc(-c2cccc(/C=C/C(=O)NO)c2)n1CCN1CCOCC1

>  <Comparison sign>
=

>  <pEC50>
5.40

$$$$
>  <Record smiles>
Cc1c(Cc2ccccc2)nc(-c2cccc(/C=C/C(=O)NO)c2)n1[C@@H]1CCCN(C)C1

>  <Comparison sign>
=

>  <pEC50>
6.70

$$$$
>  <Record smiles>
C[C@H](c1ccccc1)n1c(-c2cccc(/C=C/C(=O)NO)c2)nc2ccccc21

>  <Comparison sign>
=

>  <pEC50>
4.80

$$$$
>  <Record smiles>
CN1CCC[C@H](n2c(-c3cccc(/C=C/C(=O)NO)c3)nc3ccccc32)C1

>  <Comparison sign>
=

>  <pEC50>
5.92

$$$$
>  <Record smiles>
CCN1CCC[C@@H](n2c(-c3cccc(/C=C/C(=O)NO)c3)nc3ccccc32)C1

>  <Comparison sign>
=

>  <pEC50>
6.70

$$$$
>  <Record smiles>
COc1ccc(-n2c(-c3cccc(/C=C/C(=O)NO)c3)nc3ccccc32)cc1

>  <Comparison sign>
=

>  <pEC50>
5.40

$$$$
>  <Record smiles>
CCN1CCC[C@@H](n2c(-c3cccc(/C=C/C(=O)NO)c3)nc(Cc3ccccc3)c2C)C1

>  <Comparison sign>
=

>  <pEC50>
7.00

$$$$
>  <Record smiles>
O=C(/C=C/c1cccc(-c2nc3ccccc3n2CC2CCNCC2)c1)NO

>  <Comparison sign>
<

>  <pEC50>
4.30

$$$$
